Values from ChEMBL document CHEMBL1135823

# maps each entry to its Vd
# Measurement Protocol: Pharmacokinetic Parameter Vss was reported for Protein Tyrosine Phosphatase 1B
# Format: ADME, organism-based
# Cond: in vivo; read-out: Vss
Observation Type: Vd (L/kg)

> print(dat)
                               smiles.entry  result.number
1  O=C(O)C(=O)Nc1sc2c(c1C(=O)O)CCN(CCc1ccccc1)C2            0.9
2         O=C(O)C(=O)Nc1sc2c(c1C(=O)O)CCNC2            0.9

* * *

# Assayed Target: Tyrosine-protein phosphatase non-receptor type 1 (Homo sapiens, UniProt P18031)
# Sequence (P18031 whole entry): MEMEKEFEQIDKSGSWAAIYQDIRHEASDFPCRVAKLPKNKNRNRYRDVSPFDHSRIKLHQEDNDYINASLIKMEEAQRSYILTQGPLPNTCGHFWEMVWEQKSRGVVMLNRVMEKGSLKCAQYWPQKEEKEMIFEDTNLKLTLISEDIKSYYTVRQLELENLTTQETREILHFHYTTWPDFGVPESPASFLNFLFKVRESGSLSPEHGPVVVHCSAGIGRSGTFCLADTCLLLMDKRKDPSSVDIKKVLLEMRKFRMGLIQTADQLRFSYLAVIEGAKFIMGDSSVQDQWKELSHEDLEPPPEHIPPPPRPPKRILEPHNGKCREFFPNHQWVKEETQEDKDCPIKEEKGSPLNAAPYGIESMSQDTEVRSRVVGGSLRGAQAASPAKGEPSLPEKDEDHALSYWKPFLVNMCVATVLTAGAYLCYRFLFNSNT
# Measurement Protocol: Inhibitory effect against recombinant human protein-tyrosine phosphatase 1B (PTP1B), using p-nitrophenyl phosphate substrate at pH 5.5.
Observation Type: Ki (µM)

> print(dat)
                                   molecule  observation.type  result.number
1  O=C(O)C(=O)Nc1sc2c(c1C(=O)O)CCS(=O)(=O)C2                Ki            6.1
2  O=C(O)C(=O)Nc1sc2c(c1C(=O)O)CCC(O)C2 (centres undefined)                Ki              2
3  Nc1cccc(-c2cc(NC(=O)C(=O)O)c(C(=O)O)s2)c1                Ki            6.1
4  O=C(O)C(=O)Nc1sc2c(c1C(=O)O)CCN(Cc1ccc3ccccc3n1)C2                Ki            1.8
